Tested on: NCI-H23 lung
Assay: NCI-60 one-dose screen, 48 h (100 = growth as untreated, 0 = no growth, -100 = all killed)
Conditions: 10 µM unless noted
About 83,000 compounds went through this panel and 20% of them were active in at least one assay; those are over-represented in the sample as a whole.
Exercise: state measured growth for each of the compounds provided.
Dear colleague, please return just the value in %, with no unit written.

Suppose we examine the compound "Cc1ccc(N2C(=O)c3cccc4c(N)c(S(=O)(=O)O)cc(c34)C2=O)cc1" ; what growth value has been reported?
95.7

Suppose we examine the compound "O=C(O)c1c[nH]c2ccccc2c1=O" ; what growth value has been reported?
96.5

Suppose we examine the compound CN=S(=O)(OCCCCCOS(=O)(=NC)c1ccc(C)cc1)c1ccc(C)cc1 (stereo not given) ; what growth value has been reported?
89.1

Suppose we examine the compound "O=C(NC1CCCCC1)c1ccc(Cl)cc1" ; what growth value has been reported?
95.7

Suppose we examine the compound "COc1cc(C(=O)N2CCN(c3ccccc3)CC2)c2ccccc2n1" ; what growth value has been reported?
21.2

Suppose we examine the compound "Nc1ccc2c(c1)Cc1cc(N)c(N)cc1-2" ; what growth value has been reported?
86.2

Suppose we examine the compound "O=S(=O)(O)c1cccc2cccnc12" ; what growth value has been reported?
100

Suppose we examine the compound "O=C(Nc1ccc([N+](=O)[O-])cc1)C(=O)Nc1ccc([N+](=O)[O-])cc1" ; what growth value has been reported?
100

Suppose we examine the compound "Cc1cc(C(=O)c2ccccc2)cc(C)c1O" ; what growth value has been reported?
98.2

Suppose we examine the compound "COc1ccc(-c2csc(NC(=O)Nc3nc(-c4ccc(OC)cc4)cs3)n2)cc1" ; what growth value has been reported?
66.8

Suppose we examine the compound "CCCCNC(=O)c1ccc(OCC)cc1" ; what growth value has been reported?
101

Suppose we examine the compound "O=C(c1ccc(Cl)cc1)N1CCCCC1" ; what growth value has been reported?
95.6

Suppose we examine the compound CC(=O)OCC1CCC(COC(C)=O)CC1 (stereo not given) ; what growth value has been reported?
95.5

Suppose we examine the compound "Cc1[nH]nc(C(N)=O)c1[N+](=O)[O-]" ; what growth value has been reported?
89.2

Suppose we examine the compound "CCOC(=O)c1ccc(NC(C)=O)o1" ; what growth value has been reported?
105

Suppose we examine the compound Nc1ccn(C2CC(N)C(CO)O2)c(=O)n1 (stereo not given) ; what growth value has been reported?
80.1

Suppose we examine the compound CC(=O)C1C(=O)C(=O)N(c2cccc([N+](=O)[O-])c2)C1=O (stereo not given) ; what growth value has been reported?
99

Suppose we examine the compound "CN1C(=O)NC(c2ccc(Cl)cc2)(c2ccc(Cl)cc2)C1=O" ; what growth value has been reported?
98.2

Suppose we examine the compound "O=C(O)CSCC(=O)Nc1cc(C(F)(F)F)ccc1Cl" ; what growth value has been reported?
111

Suppose we examine the compound "CC(C)(N)CO[C@H]1C[C@H]2CC[C@@]1(C)C2(C)C" ; what growth value has been reported?
94.7

Suppose we examine the compound "CCCCn1cnc2c(=O)[nH]cnc21" ; what growth value has been reported?
106

Suppose we examine the compound "CCCCc1ccc2nc(NC(=O)OC)[nH]c2c1" ; what growth value has been reported?
14.1

Suppose we examine the compound "O=c1nc(Nc2cccc(Cl)c2)oc2cc(Cl)oc(=O)c12" ; what growth value has been reported?
64.5

Suppose we examine the compound "CCN(CC)CCN1CNC(=S)NC1" ; what growth value has been reported?
99.2

Suppose we examine the compound "Cc1ccc(N)c(S(=O)(=O)O)c1" ; what growth value has been reported?
98.6

Suppose we examine the compound "CCOC(=O)c1cc(C)[nH]c(=O)c1C#N" ; what growth value has been reported?
97.5

Suppose we examine the compound Cc1ccccc1CC(N)C(=O)O (stereo not given) ; what growth value has been reported?
98.2

Suppose we examine the compound "CCc1ccccc1C(=O)N(CC)CC" ; what growth value has been reported?
103

Suppose we examine the compound CC(=O)OCC1OC(n2cnc3c(=S)nc(N)[nH]c32)C(OC(C)=O)C1OC(C)=O (stereo not given) ; what growth value has been reported?
88.3

Suppose we examine the compound "Cc1ccc(OC(=O)c2ccccc2)cc1" ; what growth value has been reported?
114
